Values compiled from the supplement of paper PMC9170038.

Recorded measurements of apparent KD of K4 kissing-loop reporter, one per entry
test system: K4 kissing-loop RNA reporter; experiment: apparent KD of K4 kissing-loop reporter; higher = weaker reporter binding; conditions: Eterna round: R107; input ligand: none
Just the number please, in nM, no unit attached.

CCGUGGAGUGAUGUUCCACGUACUACGGAUACCAGCUUUGCCAAAGGCCCUUGGCAGCCGCACGUUGCAGUGAUGUUGUGGCGCG [Same State Theophylline A G9]
327
GCCAGCAGUACUGAUACCAGACUGCAUGUAGUGAUGUUGCAUAAGGGCAUAGAUGUCUCAGUCCCUUGGCAGCGGUACUGUUGCA [#10 K4 Theophylline B Same State]
330

Let us examine a further case.
[ask] K4 kissing-loop RNA reporter / apparent KD of K4 kissing-loop reporter / CCGCUACCCUCAGGAUAUUAAUAUGGAGUGAUGUUCUAUGUCCGAUGGCGGAAACGCCAUCGGGAAUAAGAAGGGAGGGUAGCGG : value?
[reply] 482

* * *

system: MS2 coat protein; experiment: apparent KD of MS2 coat protein; higher = weaker reporter binding; details: Eterna round: R107; input ligand: tryptophan 2.4 mM
Measure name: apparent KD of MS2 coat protein (nM)
Just the number please, in nM, no unit attached.

Examples with their reported apparent KD of MS2 coat protein follow.
UAUAUAUAUAUUGAUACCAGCAGAGAAAACGUUUAUCCUAACAUGAGGAUCACCCAUGUAUGCCCUUGGCAGCGAUAUAUAUAUA [8.C]
21.7
AGUCUCAGUGGAAGGAGCGUCGCGACUGCUACAUGAGGAUCACCCAUGUCGCCUUGAGCGCGACAGGUAGGUCGCCACGGUAGGC [Erraraorle]
18.2
AGAGUCAGACAAAAGUCUGGCUCAGCCGAAGGAGCGUCCGAAAGGACAGGUAGGUCGCGGUUACUUGAGGAUCACCCAAGUUCCU [ArgAS 26 #OpenEnded #AlternativeMS2]
144
UAAUAAAUAAAUCCAAGGUGUAGGUCAGAUACCAGCCAGAUAACUGGCCCUUGGCAGCUGAAUAAACCUGAGGAACACCCAGGUA [TheoAS 24 #OpenEnded #MS2Late #AlternativeMS2]
27.3
UGUAUGUGAUCUGAUACCAGAGUGAAUAACCUGAGGAUCACCCUGGUAAGGCGAAAGCCACUCCCUUGGCAGCAGAUCGCAUACU
136

Let us examine a further case.
[ask] What measured apparent KD of MS2 coat protein goes with CUUCUGAAAGCAAUGGGAUCUGUUAUUGAUACCAGCAUCUGAUUUUGCCCUUGGCAGCAAGAAACAUGAGGAUCACCCAUGUGGC [theeternabot_exclusion_MS2_Theo_A_19] ?
[reply] 21

* * *

test system: MS2 coat protein; test: apparent KD of MS2 coat protein; designed switch direction (-1 OFF switch, 1 ON switch): -1; higher = weaker reporter binding; settings: input ligand: microRNA oligo, concentration not stated
Recorded measurements of apparent KD of MS2 coat protein, one per entry
Just the number please, in nM, no unit attached.

CUUGUUUAUGUAGGAUAUGCCUGGCGUGCCUUUGCAGAAGGACAUGAGGAUCACCCAUGUAACAUGAGGCUCACCCAUGUCGCU [salish99_ExNG1_r04_106] (Eterna round: R96, puzzle: Exclusion NG 1)
224
UACAUGAGGAUCACCCAUGUUUUGUCGUGUAUGGUAUUUAUCUAGGAUAUCAUUUUAUUUAUUUAUGAGAAGGAGAAUAUUAAU [JMF's solution 6] (Eterna round: R96, puzzle: Exclusion NG 3)
27
UACAUGAGGAUCACCCAUGUUUUGUCGUGUAUGGUAUUUAUCUAGGAUAUCAAUCUAAUUAUUUAUGAGAAGGAGAAUAUUAAU [JMF's solution 50] (Eterna round: R96, puzzle: Exclusion NG 3)
31.2
CAAAUCAGGCGAGGAUAUCCGAAAGGAAGUGUAGGAGAAGGCGCGAAAUAUAAAACAUGAGGAUCACCCAUGUCGUCCCGUGUG [PowerStrip EXNG 1.21] (Eterna round: R96, puzzle: Exclusion NG 1)
117

[ask] What measured apparent KD of MS2 coat protein goes with UACAUGAGGAUCACCCAUGUUUUGUCGUGUAUGGUAUUUAUCUAGGAUAUCAUUUUAUUUAGUUAUGAGAAGGAGAAUAUUAAU [JMF's solution 79] (Eterna round: R96, puzzle: Exclusion NG 3) ?
[reply] 36.1

[ask] What measured apparent KD of MS2 coat protein goes with AGCGCUUACGUAGGAUAUGCAUGAGGAUCACCCAUGCAACCACAUUUAACAUGAGGAUCACCCAUGUAGAAGGACGGGUGCGCA [pwkr exNG2 2xF5 1xFMN.2] (Eterna round: R96, puzzle: Exclusion NG 2) ?
[reply] 20.4

[ask] What measured apparent KD of MS2 coat protein goes with UUGUACCGGUGAGGAUAUCGUUGAUAGAACUUUAUGAUAUACAUGAGGAUCACCCAUGUUACUUUCGAGAAGGCAUCGGAUUAU [ExNG2 6th] (Eterna round: R96, puzzle: Exclusion NG 2) ?
[reply] 10.3

[ask] What measured apparent KD of MS2 coat protein goes with GCUUGGCGAGGAUAUACAUGAGGAUCACCCAUGUGAGAGAAUAAAGUGAGGAAGAAAAGUAGAAGGCGCUGAGG [Mat - Exclusion 3 - Mod of Salish D58] (Eterna round: R96, puzzle: Exclusion 3) ?
[reply] 45

[ask] What measured apparent KD of MS2 coat protein goes with UUAAAUCAUGUAGGAUAUGCGUGGCGAAGCUAUGCAGAAGGACAUGAGGAUCACCCAUGUGCUUGCGUCUGCGUACAGAUGCUA [JL ENG1 1.12] (Eterna round: R96, puzzle: Exclusion NG 1) ?
[reply] 52.8

* * *

tested on: MS2 coat protein; assay: apparent KD of MS2 coat protein; designed switch direction (-1 OFF switch, 1 ON switch): -1; higher = weaker reporter binding; details: input ligand: none
Measure name: apparent KD of MS2 coat protein
// unit must come after the numeric part

CUAGCGGAUGUAGGAUAUCGGACUGUUUCAGUCUGAGAAGGACAUGAGGAUCACCCAUGUAUAGCUGCGUGAGUAGCUCGCUAG [JL ENG1 3.96] (Eterna round: R96, puzzle: Exclusion NG 1)
19.8 nM
UUAGGUAAAGGAUAUGUAUGGGCGACCCAUAUGACCGAGUGACAUGAGGAUCACCCAUGUAGAAGGUUGCUGAU [Eternabot (L1) Solution 60] (Eterna round: R97, puzzle: Exclusion 2)
95.7 nM
AAGCCCUGAGGAUAUCCUUACUCGCACAUGAGGAUCACCCAUGUCCUCCUCCGGGCUUCGGGAGAAGGCAGGUCUC [Megrez-7.7] (Eterna round: R97, puzzle: Exclusion 5)
56.6 nM
UUUUUACAUGAGGAUCACCCAUGUCAGGAUAUGCUUAUAUUUUAUUAUUUUAUUUUUUGCAGAAGGGACUAUUA [My solution] (Eterna round: R96, puzzle: Exclusion 1)
118 nM

[ask] What measured apparent KD of MS2 coat protein goes with CGGGACGUCCUGAUAAUAAGACAUGAGGAUCACCCAUGUCGGCAGGAUAUCAGUCCUUACGGUUUUGAGAAGGGUCGACAACCA [Birace] (Eterna round: R96, puzzle: Exclusion NG 3) ?
[reply] 13.4 nM

* * *

system: K4 kissing-loop RNA reporter; assay: apparent KD of K4 kissing-loop reporter; higher = weaker reporter binding; conditions: Eterna round: R107; input ligand: theophylline 20 uM;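 note: bound reporter read as fluorescence of individual clusters on recovered sequencing chips by microscopy, with normalized cluster intensities fitted with a binding model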
Measure name: apparent KD of K4 kissing-loop reporter (nM)
Just the number please, in nM, no unit attached.

Examples with their reported apparent KD of K4 kissing-loop reporter follow.
UGUUACCAGUGAUGUUGGGAGAUGAAGAGCAAGGAUAUGUGAUAGUACAGAAGGUGCGUCGUCGUGAUUAUCACGCUCUGUGUUA [theeternabot_exclusion_KL_FMN_A_8]
138
CUGACGUGCGGUAGGUUCAAGUGCUGGGAAGGAGCGCAGAUGACUGCAGGUAGGUCGCCCAGUGAUGUUGGGCUUUCCACCUACG [Quinbe]
214

Let us examine a further case.
[ask] What measured apparent KD of K4 kissing-loop reporter goes with UCUGUUGUAUAUGAUACCAGCAGUGAGAGAUGAGAAGUAUAGUGAUGUUAUAUGAGAGAAUGCCCUUGGCAGCGUGUGCGUGUGG [SSTheophylB.aC] ?
[reply] 100

* * *

system: MS2 coat protein; assay: apparent KD of MS2 coat protein; designed switch direction (-1 OFF switch, 1 ON switch): -1; higher = weaker reporter binding; conditions: input ligand: FMN 200 uM
Measure name: apparent KD of MS2 coat protein (nM)
Just the number please, in nM, no unit attached.

CCAGAGUGAGGAUAUGCAUAAAGGUGCUGUCCCGUGGCUUGACAUGAGGAUCACCCAUGUAGAAGGUGCGUUGU [Raonra] (Eterna round: R96, puzzle: Exclusion 2)
51.6

[ask] What measured apparent KD of MS2 coat protein goes with AUACACUAGCGAGGAUAUUGGAAAGGAAGUGUACAAGAAGGCGCCCGUGGAAGGGUGAAACAUGAGGAUCACCCAUGUGAAUAA [PowerStrip EXNG 1.29] (Eterna round: R96, puzzle: Exclusion NG 1) ?
[reply] 151
